Provide the recorded IC50 for the entries that follow.
target: human Bruton's Tyrosine Kinase (Btk) (Homo sapiens (Human), UniProt Q06187); assay: Recombinant Human Bruton's Tyrosine Kinase (Btk) Inhibition Assay (HTRF KinEASE-TK); assay type: biochemical; settings: 20 ng/ml rhBtk, 77 μM ATP (KM), 1 μM TK-Biotin substrate, 90 min; read-out: hBTK IC50
Sequence (Q06187 whole entry): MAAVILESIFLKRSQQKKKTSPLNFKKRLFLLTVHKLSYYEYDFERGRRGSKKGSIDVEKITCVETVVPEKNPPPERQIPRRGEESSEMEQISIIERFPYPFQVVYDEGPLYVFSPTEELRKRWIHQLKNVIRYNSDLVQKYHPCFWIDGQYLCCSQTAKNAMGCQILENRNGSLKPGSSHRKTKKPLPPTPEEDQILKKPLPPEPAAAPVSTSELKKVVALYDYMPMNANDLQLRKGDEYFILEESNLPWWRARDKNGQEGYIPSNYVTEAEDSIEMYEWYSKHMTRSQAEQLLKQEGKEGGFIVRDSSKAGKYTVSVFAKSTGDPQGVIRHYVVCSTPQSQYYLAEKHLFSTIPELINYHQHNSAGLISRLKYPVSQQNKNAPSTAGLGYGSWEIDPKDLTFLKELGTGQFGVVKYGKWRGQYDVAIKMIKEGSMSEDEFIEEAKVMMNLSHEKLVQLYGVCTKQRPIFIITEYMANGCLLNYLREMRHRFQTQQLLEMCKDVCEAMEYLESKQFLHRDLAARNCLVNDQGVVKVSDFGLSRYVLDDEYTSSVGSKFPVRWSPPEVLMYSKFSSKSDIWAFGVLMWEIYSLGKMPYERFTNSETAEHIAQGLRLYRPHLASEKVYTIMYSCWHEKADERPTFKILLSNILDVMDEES
The number alone won't do; follow it with the unit.

Report IC50 for "Cc1c(-c2ncnc3[nH]c(-c4cccc(CN5CCNCC5)c4)cc23)cccc1N1CCc2cc(C3CC3)ccc2C1=O" please.
515 nM

Item "Cc1c(-c2ncnc3[nH]c(-c4ccc(C(=O)N5CCNCC5)cc4)cc23)cccc1N1CCc2cc(C3CC3)ccc2C1=O" has what recorded IC50?
36 nM

What does the data say about its IC50? Entry: "CC1(O)CCN(C(=O)c2ccc(-c3cc4c(-c5cccc(N6CCOc7cc(C8CC8)ccc7C6=O)c5CO)ccnc4[nH]3)nc2)CC1"
8 nM
